These entries and their values trace back to patent US20230391772A1.

biological target: KRAS(G12C) (Homo sapiens, UniProt P01116, G12C); experiment: KRAS(G12C)/SOS1 homogeneous time-resolved fluorescence (HTRF) assay; parameters: purchased Cisbio 63ADK000CB16PEG; settings: absence of GTP, 4° C. for 3 hr, read-out: KRAS (G12C) binding
Sequence (P01116 1-188 isoform P01116-2 G12C): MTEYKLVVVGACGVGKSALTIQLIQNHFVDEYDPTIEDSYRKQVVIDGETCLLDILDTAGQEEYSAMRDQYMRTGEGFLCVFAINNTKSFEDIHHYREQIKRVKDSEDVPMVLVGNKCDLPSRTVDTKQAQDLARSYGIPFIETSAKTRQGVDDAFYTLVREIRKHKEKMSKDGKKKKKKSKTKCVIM
observedProperty: IC50

smilesRecord: CC(C)c1cc(-c2nnc(C(=O)NCC(F)(F)F)n2-c2ccc(CC3CCN(Cc4ccc(CNC(=O)CCNc5nc6c(c(N7CCN(C(=O)C(C)(C)C)CC7)n5)CCN(c5cc(O)cc7ccccc57)C6)cc4)CC3)cc2)c(O)cc1O
observedProperty: IC50
endpointResult: > 1000 nM

smilesRecord: C=CC(=O)N1CCN(c2nc(OC[C@@H]3CC[C@H](C(=O)N4CCN(C(=O)C5CCN(Cc6ccc(-n7c(O)nnc7-c7cc(C(C)C)c(O)cc7O)cc6)CC5)CC4)N3C)nc3c2CCN(c2cccc4cccc(Cl)c24)C3)C[C@@H]1CC#N
observedProperty: IC50
endpointResult: < 100 nM

----------
target: KRAS(G12C) (Homo sapiens, UniProt P01116, G12C); experiment: KRAS(G12C) Western blot protein degradation assay in LU65A cells; assay type: cell-based; set-up: LU65A human lung cancer cell line, which expresses KRAS(G12C); host or cells: LU65A; conditions: 6 hr
Listing: DC50 of selected compounds

smilesRecord: C=CC(=O)N1CCN(c2nc(OC[C@@H]3CC[C@H](CN4CCN(Cc5ccc(-n6c(C(=O)NCC)nnc6-c6cc(C(C)C)c(O)cc6O)cc5)CC4)N3C)nc3c2CCN(c2cccc4cccc(Cl)c24)C3)C[C@@H]1CC#N
DC50: > 1 µM

smilesRecord: C=CC(=O)N1CCN(c2nc(OC[C@@H]3C[C@H](N4CCN(Cc5ccc(-n6c(O)nnc6-c6cc(C)c(O)cc6O)cc5)CC4)CN3C)nc3c2CCN(c2cccc4ccccc24)C3)C[C@@H]1CC#N
DC50: 0.1 to 1 µM

----------
molecular target: KRAS(G12C) (Homo sapiens, UniProt P01116, G12C); test: KRAS(G12C) Western blot protein degradation assay in MIA PaCa-2 cells; format: cell-based; design: host or cells: LU65A; settings: 625 nM, 48 hr
Measured inhibition at 0.625 µM values are reported for all entries that follow.
observedProperty: inhibition at 0.625 µM

smilesRecord: C=CC(=O)N1CCN(c2nc(OC[C@@H]3CCN(C(=O)C4CCN(Cc5ccc(-n6c(C(N)=O)nnc6-c6cc(C(C)C)c(O)cc6O)cc5)CC4)C3)nc3c2CCN(c2cccc4cccc(Cl)c24)C3)C[C@@H]1CC#N
observedProperty: inhibition at 0.625 µM
endpointResult: < 33%
--
smilesRecord: C=CC(=O)N1CCN(c2nc(NCCC(=O)N3CCC(Cc4ccc(CN(C)Cc5ccc(-n6c(C(=O)NCC(F)(F)F)nnc6-c6cc(C(C)C)c(O)cc6O)cc5)cc4)CC3)nc3c2CCN(c2cc(O)cc4ccccc24)C3)CC1
observedProperty: inhibition at 0.625 µM
endpointResult: < 33%

----------
target: HSP90a protein (Homo sapiens, UniProt P07900); construct: purchased BPS Bioscience 50298; experiment: HSP90α-binding fluorescent polarization (FP) assay, BODIPY-labeled RNK04010 probe; conditions: FP competition with RNK04010 (BODIPY-labeled), 5 nM, 300 min at 25° C.
observedProperty: IC50

smilesRecord: C=CC(=O)N1CCN(c2nc(OC[C@@H]3C[C@@H](NC(=O)C4CCN(Cc5ccc(-n6c(O)nnc6-c6cc(C)c(O)cc6O)cc5)CC4)CN3C)nc3c2CCN(c2cccc4cccc(Cl)c24)C3)C[C@@H]1CC#N
observedProperty: IC50
endpointResult: < 100 nM
--
smilesRecord: C=CC(=O)N1CCN(c2nc(OC[C@@H]3CC[C@H](CN4CCN(Cc5ccc(-n6c(O)nnc6-c6cc(C(C)C)c(O)cc6O)cc5)CC4)N3C)nc3c2CCN(c2cccc4cccc(Cl)c24)C3)C[C@@H]1CC#N
observedProperty: IC50
endpointResult: < 100 nM
--
smilesRecord: C=CC(=O)N1CCN(c2nc(OCCC(=O)N3CCC(CN4CCN(Cc5ccc(-n6c(O)nnc6-c6cc(C(C)C)c(O)cc6O)cc5)CC4)CC3)nc3c2CCN(c2cc(O)cc4ccccc24)C3)CC1
observedProperty: IC50
endpointResult: < 100 nM
--
smilesRecord: C=CC(=O)N1CCN(c2nc(NCCC(=O)N3CCN(c4ccc(-n5c(O)nnc5-c5cc(C(C)C)c(O)cc5O)cc4)CC3)nc3c2CCN(c2cccc4ccccc24)C3)C[C@H]1CC#N
observedProperty: IC50
endpointResult: 100 to 1000 nM
--
smilesRecord: CC(=O)N1CCN(c2nc(NCCC(=O)N3CCC(Cc4ccc(CN(C)Cc5ccc(-n6c(C(=O)NCC(F)(F)F)nnc6-c6cc(C(C)C)c(O)cc6O)cc5)cc4)CC3)nc3c2CCN(c2cccc4ccccc24)C3)C[C@H]1CC#N
observedProperty: IC50
endpointResult: > 1000 nM
--
smilesRecord: C=CC(=O)N1CCN(c2nc(NCCC(=O)NCc3ccc(-n4c(O)nnc4-c4ccc(O)cc4O)cc3)nc3c2CCN(c2cccc4cccc(Cl)c24)C3)C[C@@H]1CC#N
observedProperty: IC50
endpointResult: > 1000 nM
--
smilesRecord: CCC(=O)N1CCN(c2nc(NCCC(=O)N3CCC(Cc4ccc(CN(C)Cc5ccc(-n6c(O)nnc6-c6cc(C(C)C)c(O)cc6O)cc5)cc4)CC3)nc3c2CCN(c2cc(O)cc4ccccc24)C3)CC1
observedProperty: IC50
endpointResult: 100 to 1000 nM
--
smilesRecord: C=CC(=O)N1CCN(c2nc(OC[C@@H]3C[C@H](C(=O)NCCc4ccc(CN5CCC(Cc6ccc(-n7c(C(=O)NCC(F)(F)F)nnc7-c7cc(C(C)C)c(O)cc7O)cc6)CC5)cc4)CN3C)nc3c2CCN(c2cccc4cccc(Cl)c24)C3)C[C@@H]1CC#N
observedProperty: IC50
endpointResult: < 100 nM

----------
Target: HSP90a protein (Homo sapiens)
Construct: purchased BPS Bioscience 50298
Assay: HSP90α-binding fluorescent polarization (FP) assay, BODIPY-labeled RNK04010 probe
Conditions: FP competition with RNK04010 (BODIPY-labeled), 5 nM, 300 min at 25° C.
Method: HSP90α-Binding Fluorescent Polarization (FP) Assay Binding of test compounds to HSP90a protein was measured by fluorescent polarization (FP) using the HSP90a (N-terminal) Assay Kit (BPS Bioscience, #50298), following the manufacturer's instructions, except as noted. […]
The entries below come with measured IC50 values attached.

compound: CCC(=O)N1CCN(c2nc(=O)n(-c3ccc(C(=O)NCCOCCOc4ccc(-n5c(O)nnc5-c5cc(C(C)C)c(O)cc5O)cc4)nc3)c3nc(-c4c(O)cccc4F)c(F)cc23)[C@@H](C)C1
systemUnderTest: HSP90a protein (Homo sapiens)
IC50: < 100 nM

compound: CCCc1cc(-c2nnc(O)n2-c2ccc(CN3CCN(CC4CCN(C(=O)CCNc5nc6c(c(N7CCN(C(=O)CC)CC7)n5)CCN(c5cc(O)cc7ccccc57)C6)CC4)CC3)cc2)c(O)cc1O
systemUnderTest: HSP90a protein (Homo sapiens)
IC50: 100 to 1000 nM

compound: CC(=O)N1CCN(c2nc(NCCC(=O)N3CCC(Cc4ccc(-n5c(O)nnc5-c5cc(C(C)C)c(O)cc5O)cc4)CC3)nc3c2CCN(c2cc(O)cc4ccccc24)C3)CC1
systemUnderTest: HSP90a protein (Homo sapiens)
IC50: 100 to 1000 nM

compound: CCc1cc(-c2nnc(O)n2-c2ccc(CNC(=O)CCNc3nc4c(c(N5CCN(C(C)=O)CC5)n3)CCN(c3cc(O)cc5ccccc35)C4)cc2)c(O)cc1O
systemUnderTest: HSP90a protein (Homo sapiens)
IC50: 100 to 1000 nM

compound: C=CC(=O)N1CCN(c2nc(OC[C@@H]3C[C@H](N4CCC(C(=O)N5CCN(Cc6ccc(-n7c(O)nnc7-c7cc(C)c(O)cc7O)cc6)CC5)CC4)CN3C)nc3c2CCN(c2cccc4cccc(Cl)c24)C3)C[C@@H]1CC#N
systemUnderTest: HSP90a protein (Homo sapiens)
IC50: < 100 nM

compound: C=CC(=O)N1CCN(c2nc(OC[C@@H]3CCCN(C(=O)C4CCN(Cc5ccc(-n6c(O)nnc6-c6cc(C(C)C)c(O)cc6O)cc5)CC4)C3)nc3c2CCN(c2cccc4cccc(Cl)c24)C3)C[C@@H]1CC#N
systemUnderTest: HSP90a protein (Homo sapiens)
IC50: < 100 nM

compound: C=CC(=O)N1CCN(c2nc(OC[C@@H]3C[C@H](C(=O)N4CC5(CCN(Cc6ccc(-n7c(O)nnc7-c7cc(C(C)C)c(O)cc7O)cc6)CC5)C4)CN3C)nc3c2CCN(c2cccc4cccc(Cl)c24)C3)C[C@@H]1CC#N
systemUnderTest: HSP90a protein (Homo sapiens)
IC50: < 100 nM

compound: C=CC(=O)N1CCN(c2nc(OC[C@@H]3C[C@H](N4CCC(C(=O)NCCc5ccc(-n6c(O)nnc6-c6cc(C(C)C)c(O)cc6O)cc5)CC4)CN3C)nc3c2CCN(c2cccc4cccc(Cl)c24)C3)C[C@@H]1CC#N
systemUnderTest: HSP90a protein (Homo sapiens)
IC50: < 100 nM

compound: C=CC(=O)N1CCN(c2nc(NCCC(=O)N3CCC(CN4CCC(Cc5ccc(-n6c(O)nnc6-c6cc(C(C)C)c(O)cc6O)cc5)CC4)CC3)nc3c2CCN(c2cc(O)cc4ccccc24)C3)CC1
systemUnderTest: HSP90a protein (Homo sapiens)
IC50: 100 to 1000 nM

compound: C=CC(=O)N1CCN(c2nc(OC[C@@H]3C[C@H](C(=O)N4CCN(Cc5ccc(-n6c(C(=O)NCCN7CCN(S(C)(=O)=O)CC7)nnc6-c6cc(C(C)C)c(O)cc6O)cc5)CC4)CN3C)nc3c2CCN(c2cccc4cccc(Cl)c24)C3)C[C@@H]1CC#N
systemUnderTest: HSP90a protein (Homo sapiens)
IC50: < 100 nM

compound: C=CC(=O)N1CCN(c2nc(OC[C@@H]3C[C@H](N4CCC(C(=O)N5CC6(CCN(Cc7ccc(-n8c(O)nnc8-c8cc(C(C)C)c(O)cc8O)cc7)CC6)C5)CC4)CN3C)nc3c2CCN(c2cccc4cccc(Cl)c24)C3)C[C@@H]1CC#N
systemUnderTest: HSP90a protein (Homo sapiens)
IC50: < 100 nM

compound: C=CC(=O)N1CCN(c2nc(OCC3CCC(COCC(=O)N4CCN(Cc5ccc(-n6c(O)nnc6-c6cc(CC)c(O)cc6O)cc5)CC4)N3)nc3c2CCN(c2cccc4cccc(Cl)c24)C3)C[C@@H]1CC#N (some centres unmarked)
systemUnderTest: HSP90a protein (Homo sapiens)
IC50: < 100 nM

compound: C=CC(=O)N1CCN(c2nc(OC[C@@H]3C[C@H](N4CCC(C(=O)N5CCC6(CC5)CN(Cc5ccc(-n7c(O)nnc7-c7cc(C(C)C)c(O)cc7O)cc5)C6)CC4)CN3C)nc3c2CCN(c2cccc4cccc(Cl)c24)C3)C[C@@H]1CC#N
systemUnderTest: HSP90a protein (Homo sapiens)
IC50: < 100 nM

compound: C=CC(=O)N1CCN(c2nc(OC[C@@H]3C[C@@H](OCC(=O)N4CCC(Cc5ccc(-n6c(C(=O)NCC(F)(F)F)nnc6-c6cc(C(C)C)c(O)cc6O)cc5)CC4)CN3C)nc3c2CCN(c2cccc4cccc(Cl)c24)C3)C[C@@H]1CC#N
systemUnderTest: HSP90a protein (Homo sapiens)
IC50: < 100 nM

compound: CCNC(=O)c1nnc(-c2cc(CC)c(O)cc2O)n1-c1ccc(CN2CCN(CC3CCN(C(=O)CCNc4nc5c(c(N6CCN(C(=O)CC)CC6)n4)CCN(c4cc(O)cc6ccccc46)C5)CC3)CC2)cc1
systemUnderTest: HSP90a protein (Homo sapiens)
IC50: < 100 nM

compound: CCC(=O)N1CCN(c2nc(NCCC(=O)N3CCC(CN4CCN(Cc5ccc(-n6c(O)nnc6-c6ccc(O)cc6O)cc5)CC4)CC3)nc3c2CCN(c2cc(O)cc4ccccc24)C3)CC1
systemUnderTest: HSP90a protein (Homo sapiens)
IC50: 100 to 1000 nM

compound: C=C(F)C(=O)N1CCN(c2nc(OC[C@@H]3CCCN3C(=O)COc3ccc(Nc4cc(-n5nc(C(F)(F)F)c6c5CC(C)(C)CC6=O)ccc4C(N)=O)cc3)nc3c2CCN(c2cccc4cccc(Cl)c24)C3)C[C@@H]1CC#N
systemUnderTest: HSP90a protein (Homo sapiens)
IC50: > 1000 nM
